- method: chemical genetic growth profiling, strain panel (AID 1159580);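 also: tested at 20 µM; growth read once vehicle control cultures reached saturation at 30 °C; 1 = growth at the plate median or of vehicle wells; lower values mean less growth of the strain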
- recorded-conditions: S. cerevisiae deletion strains, growth OD, locus YAL013W, strain DEP1
The campaign covered roughly 5,500 compounds. About 2,000 (36%) were called active. Not shown: some 18% with an inconclusive outcome. Rule as the data show it: active = normalized growth mostly below about 0.91 (no sharp cut-off); inconclusive = no clear call, values can overlap the other calls; inactive = mostly above about 0.92. The list shows a part of the results.
The categories you may choose from are active, inactive

As a guide, the following entries are already answered.
molecule | category
CC(C)(CC(=O)O)CC(=O)Nc1cc(C(F)(F)F)cc(C(F)(F)F)c1 | inactive
CN=C(N)NCCCC(N)C(=O)O (configuration not stated) | inactive
CCc1cccc(C)c1NC(=O)CC(C)(C)CC(=O)O | inactive

Query: Recorded test call requested for NC(=O)NC1NC(=O)NC1=O (configuration not stated)
Reply: inactive

Query: Recorded test call requested for c1ccc(-c2csc(-c3cccnc3)n2)cc1
Reply: active

Query: Recorded test call requested for CNc1ncnc2c1ncn2[C@@H]1O[C@H](CO)[C@H](O)C1O (some centres not stated)
Reply: inactive

Query: Recorded test call requested for CC(C)=CCC/C(C)=C/CC/C(C)=C/CSc1ccccc1C(=O)O
Reply: inactive

Query: Recorded test call requested for O=C1NN(c2ccccc2)C(=S)Nc2ccccc21
Reply: inactive

Query: Recorded test call requested for Cc1ccccc1CNc1ncnc2c1ncn2C1OC(CO)C(O)C1O (configuration not stated)
Reply: inactive

* * *

- method: chemical genetic growth profiling, strain panel (AID 1159580);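 also: tested at 20 µM; growth read once vehicle control cultures reached saturation at 30 °C; 1 = growth at the plate median or of vehicle wells; lower values mean less growth of the strain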
- recorded-conditions: S. cerevisiae deletion strains, growth OD, locus YLR320W, strain mms22, active compounds read low
Out of some 5,500 compounds screened, about 2,000 (36%) were called active. Another 18% or so got no clear call; they are omitted. The list shows a part of the results.
measured-property: normalized growth
Give bare numbers.

compound | endpoint-value
CC1OC(O[C@H]2/C=C/C=C/C=C/C=C/C=C/C=C/C=C/[C@H](C)[C@@H](O)[C@@H](C)[C@H](C)OC(=O)CC(O)CC(O)CCC(O)C(O)CC(O)C[C@]3(O)C[C@H](O)C(C(=O)O)C(C2)O3)C(O)[C@H](N)C1O (stereo partly drawn) | 0.917
CC(=O)O[C@@H]1CC2C(C)(C)C(=O)C3OC3[C@]2(C)C2CC[C@@]3(C)[C@H](c4ccoc4)OC(=O)C4OC43[C@@]21C (stereo partly drawn) | 0.966

# context switch: different compound, same normalized growth
normalized growth reading for CC(=O)OCC(=O)[C@@]1(O)CCC2C3CCC4=CC(=O)C=CC4(C)C3[C@@H](O)C[C@@]21C (stereo partly drawn) : 0.982

* * *

- method: chemical genetic growth profiling, strain panel (AID 1159580);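 also: tested at 20 µM; growth read once vehicle control cultures reached saturation at 30 °C; 1 = growth at the plate median or of vehicle wells; lower values mean less growth of the strain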
- recorded-conditions: S. cerevisiae deletion strains, growth OD, locus YGL227W, strain vid30
Out of some 5,500 compounds screened, about 2,000 (36%) were called active. Roughly 18% stayed inconclusive and do not appear here. Rule as the data show it: active = normalized growth mostly below about 0.91 (no sharp cut-off); inconclusive = no clear call, values can overlap the other calls; inactive = mostly above about 0.92. Some of the results follow. Where a SMILES comes first, the peptide text is derived from it.
The categories you may choose from are active, inactive

molecule | category
CC(=O)O[C@@H]1CC2C(C)(C)C(=O)C3OC3[C@]2(C)C2CC[C@@]3(C)[C@H](c4ccoc4)OC(=O)C4OC43[C@@]21C (stereo partly drawn) | inactive
CC1(C)C(=O)[C@@H]2O[C@@H]2[C@@]2(C)C1C[C@@H](O)[C@]1(C)C2CC[C@@]2(C)[C@H](c3ccoc3)OC(=O)C3OC321 (stereo partly drawn) | inactive
CC(=O)N[C@@H](CC(=O)O)C(=O)N[C@@H](CCC(=O)O)C(=O)O (Ac-Asp-Glu-OH) | inactive
CC(=O)O[C@H]1C[C@@H](OC(C)=O)C(C)(C)C2C[C@@H](O)[C@]3(C)C(CC[C@@]4(C)[C@H](c5ccoc5)OC(=O)[C@H]5O[C@]543)[C@]21C (stereo partly drawn) | inactive
CC(=O)O[C@@H]1CC2C(C)(C)[C@H](O)C=C[C@]2(C)C2CC[C@@]3(C)[C@H](c4ccoc4)OC(=O)C4OC43[C@@]21C (stereo partly drawn) | inactive

Query: Recorded test call requested for Clc1ccc(CSC(Cn2ccnc2)c2ccc(Cl)cc2Cl)cc1 (stereo not drawn)
Reply: active

Query: Recorded test call requested for CCC(=O)OC1[C@@H]2CC3=C4CC(=O)O[C@@H](c5ccoc5)[C@]4(C)CCC3[C@@](C)(C2=O)[C@@H](CC(=O)OC)C1(C)C (stereo partly drawn)
Reply: inactive

Query: Recorded test call requested for CN(C/C=C/C#CC(C)(C)C)Cc1cccc2ccccc12
Reply: active

Query: Recorded test call requested for C=C1C(=O)[C@]23[C@H](O)[C@H]1CC[C@H]2[C@@]12CO[C@]3(O)[C@H](O)[C@@H]1C(C)(C)CC[C@@H]2O
Reply: inactive

Query: Recorded test call requested for CC(=O)O[C@@H]1CC2C(C)(C)[C@H](O)CC[C@]2(C)C2CC[C@@]3(C)[C@H](c4ccoc4)OC(=O)C4OC43[C@@]21C (stereo partly drawn)
Reply: inactive

Query: Recorded test call requested for CCCNC(=O)NS(=O)(=O)c1ccc(Cl)cc1
Reply: inactive

Query: Recorded test call requested for CN(C)CCC(c1ccccc1)c1ccccn1 (stereo not drawn)
Reply: inactive

Query: Recorded test call requested for COC(=O)[C@@H]1OC(=O)C2OC23[C@@]1(C)CCC1[C@@]2(C)CCC(=O)C(C)(C)C2C[C@@H](OC(C)=O)[C@]13C (stereo partly drawn)
Reply: inactive

Query: Recorded test call requested for CC12CCCCC1(Br)[N+](=O)N2[O-] (stereo not drawn)
Reply: inactive

Query: Recorded test call requested for COc1c(C)c2c(c(O)c1C/C=C(\C)CCC(=O)O)C(=O)OC2
Reply: active

Query: Recorded test call requested for Clc1ccc(COC(Cn2ccnc2)c2ccc(Cl)cc2Cl)c(Cl)c1 (stereo not drawn)
Reply: active

Query: Recorded test call requested for c1ccc2c(CC3=NCCN3)cccc2c1
Reply: inactive

Query: Recorded test call requested for CC(O)(P(=O)(O)O)P(=O)(O)O
Reply: inactive
